Source of measurements: patent US20170275357A1

Catalogue of IC50, NIH/3T3/KZ170 NF-kB luciferase reporter readings, one per entry.
target: human IL-17A/F heterodimer (human, UniProt Q16552 24-155; Q96PD4 31-163); assay: cell-based or functional assay
State just the number; it will be interpreted in pM.

Check out these entries, answers already filled in.
BINDER: 339-35 (antibody, human IgG1, V domains shown) VH: QVQLVQSGAEVKKPGASVKVSCKASGYTFNEYTMHWVKQSHGQRLEWMGGINPNSGGVSYNQNFKGRVTITRDTSASTAYMELSSLRSEDTAVYYCARGGDGYYTNYFDIDYWGQGTTVTVSS VL: EIVLTQSPDFQSVTPKEKVTITCSASSSVNYMHWYQQKPDQSPKLLIKDTSKLASGVPSRFSGSGSGTDFTLTINSLEAEDAATYYCQQWNSHPLTFGQGTKLEIK
READOUT NUMBER: 2400
--
BINDER: 339-39 (antibody, human IgG1, V domains shown) VH: QVQLVQSGAEVKKPGASVKVSCKASGYTFNEYTMHWVKQSHGQRLEWMGGINPNSGGVSYNQNFKGKATLTVDTSSSTAYMELSSLRSEDTAVFYCARGGDGYYTNYFDIDYWGQGTTVTVSS VL: EIVLTQSPDFQSVTPKEKVTITCSASSSVNYMHWYQQKPDQSPKLLIKDTSKLASGVPSRFSGSGSGTDFTLTINSLEAEDAATYYCQQWNSHPLTFGQGTKLEIK
READOUT NUMBER: 230

Could you now consider this next binder?
Read off the recorded IC50, NIH/3T3/KZ170 NF-kB luciferase reporter for 339-71 (antibody, human IgG1, V domains shown) VH: QVQLVQSGAEVKKPGASVKVSCKASGYTFTEYTMHWVRQAPGQRLEWMGGINPNSGGVSYNQNFKGKATLTVDTSASTAYMELSSLRSEDTAVYYCARGGDGYYTNYFDIDYWGQGTTVTVSS VL: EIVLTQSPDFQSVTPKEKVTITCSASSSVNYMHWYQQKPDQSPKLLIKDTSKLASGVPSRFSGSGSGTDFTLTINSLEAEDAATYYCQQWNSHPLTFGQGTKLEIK
370
